# experimental target: human P2X3 receptor (Homo sapiens (Human), UniProt P56373)
# Sequence (P56373 whole entry): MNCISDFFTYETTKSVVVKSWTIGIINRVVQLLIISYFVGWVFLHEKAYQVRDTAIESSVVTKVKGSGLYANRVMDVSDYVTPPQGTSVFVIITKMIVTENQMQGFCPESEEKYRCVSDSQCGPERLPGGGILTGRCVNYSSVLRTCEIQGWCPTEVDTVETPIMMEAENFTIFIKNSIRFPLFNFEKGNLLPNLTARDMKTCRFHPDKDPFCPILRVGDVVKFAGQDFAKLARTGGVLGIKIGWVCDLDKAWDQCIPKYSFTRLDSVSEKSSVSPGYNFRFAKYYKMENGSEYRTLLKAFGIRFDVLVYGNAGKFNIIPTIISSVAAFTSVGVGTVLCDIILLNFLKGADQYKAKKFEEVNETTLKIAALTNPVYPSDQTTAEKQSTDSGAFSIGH
# experiment notes: Evaluation of human P2X3 receptor inhibitory activity (Fluo-3 calcium fluorescence, FDSS 3000, ATP stimulation)
# Type: cell-based
# test context: C6BU-1 cells stably expressing human P2X3 receptor, Fluo-3 fluorescence, FDSS 3000

{"compound": "Cc1ccc(Cn2c(=O)n(CCC(=O)O)c(=O)[nH]/c2=N\\c2ccc(OCC3CC3)c(Cl)c2)cc1 [Compound I-0968]", "value unit": "nM", "IC50": 107}
{"compound": "C[C@@H](C(=O)O)[C@H](C)n1c(=O)[nH]/c(=N\\c2ccc3c(c2)CC/C3=N\\O)n(Cc2ccc(Cl)cc2)c1=O [Compound I-1777]", "value unit": "nM", "IC50": 636}
{"compound": "CCc1nc2ccc(/N=c3\\[nH]c(=O)n(CCC(=O)NCCO)c(=O)n3Cc3ccc(Cl)cc3)cc2s1 [Compound I-1739]", "value unit": "nM", "IC50": 7}
{"compound": "CCCCCOc1ccc(/N=c2\\[nH]c(=O)n(C[C@H](C)C(=O)O)c(=O)n2Cc2ccc(C)cc2)cc1 [Compound I-1065]", "value unit": "nM", "IC50": 85}
{"compound": "COc1ccc2cc(/N=c3\\[nH]c(=O)n([C@@H](C)[C@@H](C)C(=O)O)c(=O)n3Cc3ccc(Cl)cc3)ccc2c1 [Compound I-1773]", "value unit": "nM", "IC50": 29}
{"compound": "CC[C@@H](C)Oc1ccc(/N=c2\\[nH]c(=O)n(CCC(=O)O)c(=O)n2Cc2ccc(C)cc2)cc1 [Compound I-1028]", "value unit": "nM", "IC50": 78}
{"compound": "CCCOc1ccc(/N=c2\\[nH]c(=O)n(C[C@@H](C)C(=O)OC)c(=O)n2Cc2ccc(Cl)cc2)cc1 [Compound I-1034]", "value unit": "nM", "IC50": 5}

---

# log10 of IC50 listing for each entry below
# experimental target: human P2X3 receptor (Homo sapiens (Human), UniProt P56373)
# experiment notes: Evaluation of human P2X3 receptor inhibitory activity (Fluo-3 calcium fluorescence, FDSS 3000, ATP stimulation);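 note: stimulus was 50 nM ATP with fluorescence followed for 3 min, and the response per well was peak post-ATP fluorescence divided by the reading at measurement start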
# Format: cell-based
# test context: C6BU-1 cells stably expressing human P2X3 receptor
reported property: log10 of IC50 (log10 of the value in nM)

{"input smiles": "COC(=O)[C@H](C)Cn1c(=O)[nH]/c(=N\\c2ccc(OC(C)C)c(C)c2)n(Cc2ccc(Cl)cc2)c1=O", "experimental target": "human P2X3 receptor (Homo sapiens (Human), UniProt P56373)", "log10 of IC50": 0.78}
{"input smiles": "C[C@@H](Cn1c(=O)[nH]/c(=N\\c2ccc3c(c2)COCO3)n(Cc2ccc(Cl)cc2)c1=O)C(=O)O", "experimental target": "human P2X3 receptor (Homo sapiens (Human), UniProt P56373)", "log10 of IC50": 2.15}
{"input smiles": "CC(C)Oc1ccc(/N=c2\\[nH]c(=O)n(C[C@H]3COC(C)(C)O3)c(=O)n2Cc2ccc(Cl)cc2)cc1Cl", "experimental target": "human P2X3 receptor (Homo sapiens (Human), UniProt P56373)", "log10 of IC50": 0.60}
{"input smiles": "COC(=O)[C@H](C)[C@H](C)n1c(=O)[nH]/c(=N\\c2ccc(OC3CCC3)cc2)n(Cc2ccc(C)cc2)c1=O", "experimental target": "human P2X3 receptor (Homo sapiens (Human), UniProt P56373)", "log10 of IC50": 1.00}
{"input smiles": "COc1ccc2cc(/N=c3\\[nH]c(=O)n(CCC(=O)O)c(=O)n3Cc3ccc(C)cc3)ccc2n1", "experimental target": "human P2X3 receptor (Homo sapiens (Human), UniProt P56373)", "log10 of IC50": 2.13}
{"input smiles": "C[C@@H](Cn1c(=O)[nH]/c(=N\\c2ccc3oc(C(=O)O)cc3c2)n(Cc2ccc(Cl)cc2)c1=O)C(=O)O", "experimental target": "human P2X3 receptor (Homo sapiens (Human), UniProt P56373)", "log10 of IC50": 2.89}
{"input smiles": "COC(=O)[C@@H](C)[C@@H](C)n1c(=O)[nH]/c(=N\\c2ccc(OC3CCC3)cc2)n(Cc2ccc(Cl)cc2)c1=O", "experimental target": "human P2X3 receptor (Homo sapiens (Human), UniProt P56373)", "log10 of IC50": 1.15}
{"input smiles": "CO[C@@H](Cn1c(=O)[nH]/c(=N\\c2ccc(OC(C)C)c(C)c2)n(Cc2ccc(Cl)cc2)c1=O)C(=O)O", "experimental target": "human P2X3 receptor (Homo sapiens (Human), UniProt P56373)", "log10 of IC50": 1.11}
{"input smiles": "CC[C@@H](C)Oc1ccc(/N=c2\\[nH]c(=O)n(C[C@H](C)C(=O)OC)c(=O)n2Cc2ccc(Cl)cc2)cc1", "experimental target": "human P2X3 receptor (Homo sapiens (Human), UniProt P56373)", "log10 of IC50": 1.08}
{"input smiles": "CC(C)Oc1ccc(/N=c2\\[nH]c(=O)n(CCNC(=N)N)c(=O)n2Cc2ccc(Cl)cc2)cc1F", "experimental target": "human P2X3 receptor (Homo sapiens (Human), UniProt P56373)", "log10 of IC50": 2.13}
{"input smiles": "COC(=O)[C@@H](C)Cn1c(=O)[nH]/c(=N\\c2ccc(OC(C)C)c(Cl)c2)n(Cc2ccc(F)cc2)c1=O", "experimental target": "human P2X3 receptor (Homo sapiens (Human), UniProt P56373)", "log10 of IC50": 1.34}
{"input smiles": "CCc1ccc(/N=c2\\[nH]c(=O)n(C[C@H](C)C(=O)OC)c(=O)n2Cc2ccc(Cl)cc2)cc1C", "experimental target": "human P2X3 receptor (Homo sapiens (Human), UniProt P56373)", "log10 of IC50": 2.28}
{"input smiles": "COC(=O)[C@H](C)[C@H](C)n1c(=O)[nH]/c(=N\\c2ccc(OCC(C)C)cc2)n(Cc2ccc(Cl)cc2)c1=O", "experimental target": "human P2X3 receptor (Homo sapiens (Human), UniProt P56373)", "log10 of IC50": 1.69}

Data provenance: patent US9718790B2
